- ASSAY SUMMARY: total protein half-life in vivo (active degradation + dilution); higher = more stable protein
- CONDITION SET: wild type E. coli NCM3722; growth: C-lim chemostat; doubling time 12 h
Reported values of total protein half-life in vivo for individual entries
ASSAY READOUT: total protein half-life in vivo (h)

INSERT INTO results (residue_sequence, unit_label, result_value) VALUES
  ('MGFKCGIVGLPNVGKSTLFNALTKAGIEAANFPFCTIEPNTGVVPMPDPRLDQLAEIVKPQRTLPTTMEFVDIAGLVKGASKGEGLGNQFLTNIRETEAIGHVVRCFENDNIIHVSGKVNPADDIEVINTELALADLDTCERAIHRVQKKAKGGDKDAKAELAVLEKCLPQLENAGMLRALDLSAEEKAAIRYLSFLTLKPTMYIANVNEDGFENNPYLDQVREIAAKEGSVVVPVCAAVEADIAELDDEERDEFMQELGLEEPGLNRVIRAGYKLLNLQTYFTAGVKEVRAWTIPVGATAPQAAGKIHTDFEKGFIRAQTISFEDFITYKGEQGAKEAGKMRAEGKDYIVKDGDVMNFLFNV [P0ABU2]', 'h', 9.13),
  ('MKKLTVAALAVTTLLSGSAFAHEAGEFFMRAGSATVRPTEGAGGTLGSLGGFSVTNNTQLGLTFTYMATDNIGVELLAATPFRHKIGTRATGDIATVHHLPPTLMAQWYFGDASSKFRPYVGAGINYTTFFDNGFNDHGKEAGLSDLSLKDSWGAAGQVGVDYLINRDWLVNMSVWYMDIDTTANYKLGGAQQHDSVRLDPWVFMFSAGYRF [P0A915]', 'h', 12.6),
  ('MQLNITGNNVEITEALREFVTAKFAKLEQYFDRINQVYVVLKVEKVTHTSDATLHVNGGEIHASAEGQDMYAAIDGLIDKLARQLTKHKDKLKQH [P0AFX0]', 'h', 8.14);
